Each entry below carries its measured AC50, system: D(3) dopamine receptor (Homo sapiens). Also: assay procedure not described here.
Sequence (P35462 whole entry): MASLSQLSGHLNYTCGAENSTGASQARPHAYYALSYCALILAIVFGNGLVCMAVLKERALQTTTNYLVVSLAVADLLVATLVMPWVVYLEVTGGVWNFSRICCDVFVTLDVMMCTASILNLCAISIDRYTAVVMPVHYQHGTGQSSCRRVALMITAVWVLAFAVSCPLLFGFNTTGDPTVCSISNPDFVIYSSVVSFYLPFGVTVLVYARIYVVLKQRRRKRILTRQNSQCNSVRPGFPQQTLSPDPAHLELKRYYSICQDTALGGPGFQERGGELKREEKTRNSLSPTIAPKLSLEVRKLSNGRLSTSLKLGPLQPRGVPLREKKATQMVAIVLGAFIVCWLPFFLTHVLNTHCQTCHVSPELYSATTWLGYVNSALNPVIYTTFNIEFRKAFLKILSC
property.name: AC50

INSERT INTO assay_data (compound, property_name, result) VALUES
  ('Clc1cccc(Cl)c1N=C1NCCN1', 'AC50', '> 10 µM'),
  ('[H]/N=C(/N)N[C@H]1[C@H](O)[C@@H](O)[C@H](O[C@@H]2O[C@@H](C)[C@](O)(C=O)[C@H]2O[C@@H]2O[C@@H](CO)[C@H](O)[C@@H](O)[C@@H]2NC)[C@@H](N/C(N)=N\[H])[C@@H]1O', 'AC50', '> 30 µM'),
  ('CC1(C)S[C@@H]2[C@H](NC(=O)[C@H](N)c3ccc(O)cc3)C(=O)N2[C@H]1C(=O)O', 'AC50', '> 30 µM'),
  ('CCn1cc(C(=O)O)c(=O)c2cc(F)c(N3CCN(C)CC3)cc21', 'AC50', '3.6 µM'),
  ('COc1cccc2c1C(=O)c1c(O)c3c(c(O)c1C2=O)C[C@@](O)(C(C)=O)C[C@@H]3O[C@H]1C[C@H](N)[C@H](O)[C@H](C)O1', 'AC50', '17.9 µM'),
  ('Nc1nc2c(c(=O)[nH]1)N(C=O)C(CNc1ccc(C(=O)N[C@@H](CCC(=O)O)C(=O)O)cc1)CN2 (stereo partly specified)', 'AC50', '> 30 µM'),
  ('CCCCC1(CC)C(=O)NC(=O)NC1=O', 'AC50', '> 30 µM'),
  ('Cc1cc2nc3c(=O)[nH]c(=O)nc-3n(C[C@H](O)[C@H](O)[C@H](O)COP(=O)(O)O)c2cc1C [RIBOFLAVIN 5''-PHOSPHATE]', 'AC50', '> 30 µM'),
  ('CC1(C)O[C@@H]2[C@@H](CO[C@@]3(COS(N)(=O)=O)OC(C)(C)O[C@@H]23)O1 [TOPIRAMATE]', 'AC50', '> 10 µM'),
  ('CC[C@@H](CO)NC(=O)[C@@H]1C=C2c3cccc4[nH]cc(c34)C[C@H]2N(C)C1', 'AC50', '0.29 µM'),
  ('Oc1c(I)cc(Cl)c2cccnc12', 'AC50', '> 30 µM'),
  ('COCCOC(=O)C1=C(C)NC(C)=C(C(=O)OC/C=C/c2ccccc2)C1c1cccc([N+](=O)[O-])c1 (stereo unspecified)', 'AC50', '> 30 µM'),
  ('O=C1NC(=O)C(c2ccccc2)(c2ccccc2)N1', 'AC50', '> 30 µM'),
  ('NC(=O)CCC/N=C(\c1ccc(Cl)cc1)c1cc(F)ccc1O [PROGABIDE]', 'AC50', '> 30 µM'),
  ('O=C(O)c1ccccc1OP(=O)(O)O', 'AC50', '> 30 µM'),
  ('O=C(Nc1nc(-c2cc(Cl)cs2)c(N2CCN(C3CCCCC3)CC2)s1)c1cnc(N2CCC(C(=O)O)CC2)c(Cl)c1', 'AC50', '> 10 µM');

---

- target: UniProt:O43193
- Sequence (O43193 whole entry): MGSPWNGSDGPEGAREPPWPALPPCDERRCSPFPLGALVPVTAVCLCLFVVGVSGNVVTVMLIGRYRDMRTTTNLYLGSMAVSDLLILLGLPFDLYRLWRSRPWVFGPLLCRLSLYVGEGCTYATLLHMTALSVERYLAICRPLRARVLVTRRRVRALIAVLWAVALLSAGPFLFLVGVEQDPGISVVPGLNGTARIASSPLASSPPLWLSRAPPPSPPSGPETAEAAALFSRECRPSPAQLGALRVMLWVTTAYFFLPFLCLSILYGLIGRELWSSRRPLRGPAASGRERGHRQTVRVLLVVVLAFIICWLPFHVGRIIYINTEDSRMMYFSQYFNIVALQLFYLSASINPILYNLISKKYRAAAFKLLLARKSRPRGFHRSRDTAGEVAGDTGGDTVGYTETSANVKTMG
// values below are reported AC50
property.name: AC50

INSERT INTO measurements (molecule, target, result) VALUES
  ('O=C1Nc2ccc(Cl)cc2C(c2ccccc2)=NC1O (configuration not stated) [OXAZEPAM]', 'UniProt:O43193', '> 10 µM'),
  ('COc1cc2c(Nc3ccc(Br)cc3F)ncnc2cc1OCC1CCN(C)CC1 [VANDETANIB]', 'UniProt:O43193', '> 30 µM'),
  ('C[C@]12CC[C@H](O)CC1=CC[C@@H]1[C@@H]2CC[C@]2(C)C(c3cccnc3)=CC[C@@H]12 [ABIRATERONE]', 'UniProt:O43193', '> 10 µM'),
  ('Nc1nc(O)c2ncn(COC(CO)CO)c2n1 [GANCICLOVIR]', 'UniProt:O43193', '> 30 µM'),
  ('CC#CCn1c(N2CCC[C@@H](N)C2)nc2c1c(=O)n(Cc1nc(C)c3ccccc3n1)c(=O)n2C [LINAGLIPTIN]', 'UniProt:O43193', '> 10 µM'),
  ('COC1=C(OC)C(=O)C(CCCCCCCCCCO)=C(C)C1=O [IDEBENONE]', 'UniProt:O43193', '> 10 µM'),
  ('CCc1oc2ccccc2c1C(=O)c1cc(Br)c(O)c(Br)c1 [BENZBROMARONE]', 'UniProt:O43193', '> 30 µM'),
  ('CC(C)=CCOc1ccc(/C=C/C(=O)c2ccc(OCC=C(C)C)cc2OCC(=O)O)cc1 [SOFALCONE]', 'UniProt:O43193', '> 30 µM'),
  ('CC(=O)OCC[N+](C)(C)C [ACETYLCHOLINE]', 'UniProt:O43193', '> 30 µM'),
  ('CN1c2ccccc2C(NCCCCCCC(=O)O)c2ccc(Cl)cc2S1(=O)=O (configuration not stated) [TIANEPTINE]', 'UniProt:O43193', '> 30 µM'),
  ('[H]/N=C(\N/C(=N/[H])NCCCCCCNC(=N)NC(=N)Nc1ccc(Cl)cc1)Nc1ccc(Cl)cc1 [CHLORHEXIDINE]', 'UniProt:O43193', '0.784 µM'),
  ('NCCCC(O)(P(=O)(O)O)P(=O)(O)O [ALENDRONIC ACID]', 'UniProt:O43193', '> 10 µM'),
  ('CC1(C)S[C@@H]2[C@H](NC(=O)[C@H](N)c3ccc(O)cc3)C(=O)N2[C@H]1C(=O)O [AMOXICILLIN]', 'UniProt:O43193', '> 30 µM'),
  ('[H]/N=C(/N)N[C@H]1[C@H](O)[C@@H](O)[C@H](O[C@@H]2O[C@@H](C)[C@](O)(C=O)[C@H]2O[C@@H]2O[C@@H](CO)[C@H](O)[C@@H](O)[C@@H]2NC)[C@@H](N/C(N)=N\[H])[C@@H]1O [STREPTOMYCIN]', 'UniProt:O43193', '> 30 µM'),
  ('NC(=O)CCC/N=C(\c1ccc(Cl)cc1)c1cc(F)ccc1O [PROGABIDE]', 'UniProt:O43193', '> 10 µM'),
  ('CCCC[C@H](C)C[C@H](O)/C=C/[C@H]1[C@H](O)CC(=O)[C@@H]1CCCC/C=C/C(=O)O [LIMAPROST]', 'UniProt:O43193', '> 30 µM'),
  ('CCCCC1(CC)C(=O)NC(=O)NC1=O [BUTETHAL]', 'UniProt:O43193', '> 30 µM');
